# experiment.description: Apparent permeability of the compound across apical to basolateral side in human Caco-2 cells assessed as compound recovery
# Type: ADME, cell-based
# condition: read-out: Activity
measure: recovery

compound	recovery
CC(C)[C@@H]1CC[C@]2(C(=O)O)CC[C@]3(C)[C@H](CC[C@@H]4[C@@]5(C)Cc6c(C(F)(F)F)cc(=O)oc6C(C)(C)[C@@H]5CC[C@]43C)[C@@H]12	105%
C=C(C)[C@@H]1CC[C@]2(C(=O)O)CC[C@]3(C)[C@H](CC[C@@H]4[C@@]5(C)Cc6c(C(F)(F)F)cc(C(=O)OC)c(C(=O)OC)c6C(C)(C)[C@@H]5CC[C@]43C)[C@@H]12	75.8%
C[C@H]1[C@H](C)CC[C@]2(C(=O)O)CC[C@]3(C)C(=CC[C@@H]4[C@@]5(C)CC6=C(C7C(=O)N(c8ccccc8)C(=O)C7C=C6C(F)(F)F)C(C)(C)[C@@H]5CC[C@]43C)[C@H]12 (stereo partly specified)	69.2%
C=C(C)[C@@H]1CC[C@]2(C(=O)O)CC[C@]3(C)[C@H](CC[C@@H]4[C@@]5(C)CC6=C(C7C(=O)N(c8ccccc8)C(=O)C7C=C6C(F)(F)F)C(C)(C)[C@@H]5CC[C@]43C)[C@@H]12 (stereo partly specified)	86%
CC(C)[C@@H]1CC[C@]2(C(=O)O)CC[C@]3(C)[C@H](CC[C@@H]4[C@@]5(C)CC6=C(C7C(=O)N(c8ccccc8)C(=O)C7C=C6C(F)(F)F)C(C)(C)[C@@H]5CC[C@]43C)[C@@H]12 (stereo partly specified)	84.2%

Attention now turns to another entry.
For "C=C(C)[C@@H]1CC[C@]2(C(=O)O)CC[C@]3(C)[C@H](CC[C@@H]4[C@@]5(C)Cc6c(C(F)(F)F)cc(=O)oc6C(C)(C)[C@@H]5CC[C@]43C)[C@@H]12" , what is its reported recovery?
104%

* * *

Items are presented alongside their recorded efflux ratio.
# experiment.description: Efflux ratio of apparent permeability across basolateral to apical side over apical to basolateral side in human Caco-2 cells
# Type: ADME, cell-based

What efflux ratio value was documented for this compound, C[C@H]1[C@H](C)CC[C@]2(C(=O)O)CC[C@]3(C)C(=CC[C@@H]4[C@@]5(C)CC6=C(C7C(=O)N(c8ccccc8)C(=O)C7C=C6C(F)(F)F)C(C)(C)[C@@H]5CC[C@]43C)[C@H]12 (some centres undefined) ?
41.8

Give the measured efflux ratio of "C=C(C)[C@@H]1CC[C@]2(C(=O)O)CC[C@]3(C)[C@H](CC[C@@H]4[C@@]5(C)Cc6c(C(F)(F)F)cc(C(=O)OC)c(C(=O)OC)c6C(C)(C)[C@@H]5CC[C@]43C)[C@@H]12" .
5.62

// returns reported efflux ratio for input "C=C(C)[C@@H]1CC[C@]2(C(=O)O)CC[C@]3(C)[C@H](CC[C@@H]4[C@@]5(C)Cc6c(C(F)(F)F)cc(=O)oc6C(C)(C)[C@@H]5CC[C@]43C)[C@@H]12"
28.4

Endpoint output: efflux ratio of CC(C)[C@@H]1CC[C@]2(C(=O)O)CC[C@]3(C)[C@H](CC[C@@H]4[C@@]5(C)CC6=C(C7C(=O)N(c8ccccc8)C(=O)C7C=C6C(F)(F)F)C(C)(C)[C@@H]5CC[C@]43C)[C@@H]12 (some centres undefined) . Value?
63.5

* * *

# experiment.description: Cytotoxicity against human BJ cells assessed as reduction in cell viability incubated for 72 hrs by MTS assay
# Format: toxicity, cell-based
// values below are reported IC50 at 72 h

Here's what some known entries look like.
molecule	reported.result
C=C(C)[C@@H]1CC[C@]2(C(=O)O)CC[C@]3(C)[C@H](CC[C@@H]4[C@@]5(C)CC(C(=O)C(F)(F)F)C(=O)C(C)(C)[C@@H]5CC[C@]43C)[C@@H]12 (stereo partly specified)	> 50 µM
C[C@H]1[C@H](C)CC[C@]2(C(=O)O)CC[C@]3(C)C(=CC[C@@H]4[C@@]5(C)Cc6c(C(F)(F)F)cc(=O)oc6C(C)(C)[C@@H]5CC[C@]43C)[C@H]12	> 50 µM
CC(C)[C@@H]1CC[C@]2(C(=O)O)CC[C@]3(C)[C@H](CC[C@@H]4[C@@]5(C)CC(C(=O)C(F)(F)F)C(=O)C(C)(C)[C@@H]5CC[C@]43C)[C@@H]12 (stereo partly specified)	43 µM
COC(=O)c1cc(C(F)(F)F)c2c(c1C(=O)OC)C(C)(C)[C@@H]1CC[C@]3(C)[C@H](CC[C@@H]4[C@H]5[C@H](C(C)C)CC[C@]5(C(=O)O)CC[C@]43C)[C@@]1(C)C2	> 50 µM
C=C(C)[C@@H]1CC[C@]2(C(=O)O)CC[C@]3(C)[C@H](CC[C@@H]4[C@@]5(C)Cc6c(C(F)(F)F)cc7c(c6C(C)(C)[C@@H]5CC[C@]43C)C(=O)N(c3ccccc3)C7=O)[C@@H]12	> 50 µM
C[C@H]1[C@H](C)CC[C@]2(C(=O)O)CC[C@]3(C)C(=CC[C@@H]4[C@@]5(C)Cc6c(C(F)(F)F)cc7c(c6C(C)(C)[C@@H]5CC[C@]43C)C(=O)N(c3ccccc3)C7=O)[C@H]12	> 50 µM
C=C(C)[C@@H]1CC[C@]2(C(=O)O)CC[C@]3(C)[C@H](CC[C@@H]4[C@@]5(C)Cc6c(C(F)(F)F)cc(=O)oc6C(C)(C)[C@@H]5CC[C@]43C)[C@@H]12	> 50 µM
C[C@H]1[C@H](C)CC[C@]2(C(=O)O)CC[C@]3(C)C(=CC[C@@H]4[C@@]5(C)CC6=C(C7C(=O)N(c8ccccc8)C(=O)C7C=C6C(F)(F)F)C(C)(C)[C@@H]5CC[C@]43C)[C@H]12 (stereo partly specified)	10 µM

Fill blank: measured IC50 at 72 h of the molecule C[C@H]1[C@H](C)CC[C@]2(C(=O)O)CC[C@]3(C)C(=CC[C@@H]4[C@@]5(C)CC(C(=O)C(F)(F)F)C(=O)C(C)(C)[C@@H]5CC[C@]43C)[C@H]12 (stereo partly specified) is ____.
> 50 µM

What measured IC50 at 72 h goes with "COC(=O)c1cc(C(F)(F)F)c2c(c1C(=O)OC)C(C)(C)[C@@H]1CC[C@]3(C)[C@H](CC=C4[C@@H]5[C@@H](C)[C@H](C)CC[C@]5(C(=O)O)CC[C@]43C)[C@@]1(C)C2" ?
> 50 µM

Value lookup for IC50 at 72 h; key = "CC(C)[C@@H]1CC[C@]2(C(=O)O)CC[C@]3(C)[C@H](CC[C@@H]4[C@@]5(C)Cc6c(C(F)(F)F)cc(=O)oc6C(C)(C)[C@@H]5CC[C@]43C)[C@@H]12"
> 50 µM

* * *

As shown below, each of these molecules has a reported Papp value.
# experiment.description: Apparent permeability of the compound in human Caco-2 cells
# Type: ADME, cell-based
A number alone suffices; assume ×10⁻⁶ cm/s.

// known answers, use as guide
molecule	unit.abbreviation	Papp
C=C(C)[C@@H]1CC[C@]2(C(=O)O)CC[C@]3(C)[C@H](CC[C@@H]4[C@@]5(C)Cc6c(C(F)(F)F)cc(C(=O)OC)c(C(=O)OC)c6C(C)(C)[C@@H]5CC[C@]43C)[C@@H]12	×10⁻⁶ cm/s	1.73
C=C(C)[C@@H]1CC[C@]2(C(=O)O)CC[C@]3(C)[C@H](CC[C@@H]4[C@@]5(C)Cc6c(C(F)(F)F)cc(=O)oc6C(C)(C)[C@@H]5CC[C@]43C)[C@@H]12	×10⁻⁶ cm/s	0.04
C[C@H]1[C@H](C)CC[C@]2(C(=O)O)CC[C@]3(C)C(=CC[C@@H]4[C@@]5(C)CC6=C(C7C(=O)N(c8ccccc8)C(=O)C7C=C6C(F)(F)F)C(C)(C)[C@@H]5CC[C@]43C)[C@H]12 (stereo partly specified)	×10⁻⁶ cm/s	0.12
CC(C)[C@@H]1CC[C@]2(C(=O)O)CC[C@]3(C)[C@H](CC[C@@H]4[C@@]5(C)Cc6c(C(F)(F)F)cc(=O)oc6C(C)(C)[C@@H]5CC[C@]43C)[C@@H]12	×10⁻⁶ cm/s	0.15

Which Papp reading was recorded for the molecule C=C(C)[C@@H]1CC[C@]2(C(=O)O)CC[C@]3(C)[C@H](CC[C@@H]4[C@@]5(C)CC6=C(C7C(=O)N(c8ccccc8)C(=O)C7C=C6C(F)(F)F)C(C)(C)[C@@H]5CC[C@]43C)[C@@H]12 (stereo partly specified) ?
0.04

Value lookup for Papp; key = CC(C)[C@@H]1CC[C@]2(C(=O)O)CC[C@]3(C)[C@H](CC[C@@H]4[C@@]5(C)CC6=C(C7C(=O)N(c8ccccc8)C(=O)C7C=C6C(F)(F)F)C(C)(C)[C@@H]5CC[C@]43C)[C@@H]12 (stereo partly specified)
0.09
